Reference source: patent US11266146B2

Below: a set of entries, each annotated with reported inhibition of growth at 20 ppm.
Test system: Botryotinia fuckeliana (Botrytis cinerea)
Assay: Botryotinia fuckeliana (Botrytis cinerea) / liquid culture (Gray mould)
Format: cell-based
Conditions: growth inhibition photometrically 3-4 days after application, vs untreated control

Some solved cases for reference:
>  <Molecule>
CC1=NN(CC(C)(CC(C)C)NC(=O)c2cnc3c(F)cccc3c2)CCC1 (stereo not drawn)

>  <inhibition of growth at 20 ppm>
≥ 80%

$$$$
>  <Molecule>
Cc1cc(C)n(CC(C)(CC(C)C)NC(=O)c2cnc3c(F)cccc3c2)n1 (stereo not drawn)

>  <inhibition of growth at 20 ppm>
≥ 80%

$$$$
>  <Molecule>
CC(C)CC(C)(CN1CCCC=N1)NC(=O)c1cnc2c(F)cccc2c1 (stereo not drawn)

>  <inhibition of growth at 20 ppm>
≥ 80%

$$$$
>  <Molecule>
CC(Cc1cccc(F)n1)(CC(F)(F)F)NC(=O)c1cnc2ccccc2c1 (stereo not drawn)

>  <inhibition of growth at 20 ppm>
≥ 80%

$$$$
>  <Molecule>
CC(CC1CCCOC1)(CC(F)(F)F)NC(=O)c1cnc2ccccc2c1 (stereo not drawn)

>  <inhibition of growth at 20 ppm>
≥ 80%

$$$$

Qu. Kindly state the measured inhibition of growth at 20 ppm obtained for CC(C)CC(C)(CN1CCSCC1)NC(=O)c1cnc2c(F)cccc2c1 (stereo not drawn) with Botryotinia fuckeliana (Botrytis cinerea).
Ans. ≥ 80%

Qu. Kindly state the measured inhibition of growth at 20 ppm obtained for CC(C)CC(C)(CN1CCC(F)(F)CC1)NC(=O)c1cnc2c(F)cccc2c1 (stereo not drawn) with Botryotinia fuckeliana (Botrytis cinerea).
Ans. ≥ 80%

Qu. Kindly state the measured inhibition of growth at 20 ppm obtained for CC(C)CC(C)(CN1CCC(=C(F)F)CC1)NC(=O)c1cnc2c(F)cccc2c1 (stereo not drawn) with Botryotinia fuckeliana (Botrytis cinerea).
Ans. ≥ 80%

Qu. Kindly state the measured inhibition of growth at 20 ppm obtained for Cc1cccc2cc(C(=O)NC(C)(Cc3cccc(F)n3)CC(F)(F)F)cnc12 (stereo not drawn) with Botryotinia fuckeliana (Botrytis cinerea).
Ans. ≥ 80%

---

Measurement name: melting point

>  <Compound>
CC(CC1CCCOC1)(CC(F)(F)F)NC(=O)c1cnc2c(F)cccc2c1 (stereo not drawn)

>  <melting point>
85 to 88 °C

$$$$
>  <Compound>
CON1CCC(CC(C)(CC(F)(F)F)NC(=O)c2cnc3c(F)cccc3c2)CC1 (stereo not drawn)

>  <melting point>
76 to 86 °C

$$$$

Qu. Entry CC(C)CC(C)(Cc1cnc(Cl)s1)NC(=O)c1cnc2c(F)cccc2c1 (stereo not drawn) has what melting point?
Ans. 171 to 173 °C

Qu. Entry Cc1cc(C(F)(F)F)nn1CC(C)(CC(C)C)NC(=O)c1cnc2c(F)cccc2c1 (stereo not drawn) has what melting point?
Ans. 140 to 144 °C

Qu. Entry CC(Cc1ccnc(F)c1)(CC(F)(F)F)NC(=O)c1cnc2c(F)cccc2c1 (stereo not drawn) has what melting point?
Ans. 136 to 142 °C

Qu. Entry Cc1nn(CC(C)(CC(C)C)NC(=O)c2cnc3c(F)cccc3c2)c(C)c1C (stereo not drawn) has what melting point?
Ans. 140 to 144 °C

Qu. Entry Cc1ncc(CC(C)(CC(C)C)NC(=O)c2cnc3c(F)cccc3c2)s1 (stereo not drawn) has what melting point?
Ans. 146 to 150 °C

Qu. Entry CC(CC1CCCOC1)(CC(F)(F)F)NC(=O)c1cnc2ccccc2c1 (stereo not drawn) has what melting point?
Ans. 81 to 84 °C

Qu. Entry CC(Cc1ccc(F)nc1)(CC(F)(F)F)NC(=O)c1cnc2c(F)cccc2c1 (stereo not drawn) has what melting point?
Ans. 70 to 74 °C

---

Measurement name: melting point

Some solved cases for reference:
>  <Molecule>
CC(CC1CCOCC1)(CC(F)(F)F)NC(=O)c1cnc2c(F)cccc2c1 (stereo not shown)

>  <Measurement name>
melting point

>  <Meas value>
150 to 151 °C

$$$$
>  <Molecule>
CC(C)CC(C)(Cc1ccc(Cl)s1)NC(=O)c1cnc2c(F)cccc2c1 (stereo not shown)

>  <Measurement name>
melting point

>  <Meas value>
126 to 128 °C

$$$$
>  <Molecule>
CC(Cc1cccc(F)n1)(CC(F)(F)F)NC(=O)c1cnc2ccccc2c1 (stereo not shown)

>  <Measurement name>
melting point

>  <Meas value>
109 to 111 °C

$$$$

Qu. Entry Cc1nn(CC(C)(CC(C)C)NC(=O)c2cnc3c(F)cccc3c2)c(C)c1Cl (stereo not shown) has what melting point?
Ans. 134 to 138 °C

---

Tested on: Glomerella lagenarium (Colletotrichum lagenarium)
Assay: Glomerella lagenarium (Colletotrichum lagenarium) / liquid culture (Anthracnose)
Format: cell-based
Details: Colletotrichum orbiculare, growth inhibition photometrically 3-4 days after application, vs untreated control
Below: a set of entries, each annotated with reported inhibition of growth at 20 ppm.

>  <Compound>
Cc1cccc2cc(C(=O)NC(C)(CC3CCOCC3)CC(F)(F)F)cnc12 (stereo not drawn) [E32]

>  <Target system>
Glomerella lagenarium (Colletotrichum lagenarium)

>  <Meas value>
≥ 80%

$$$$
>  <Compound>
CC(C)CC(C)(CN1CCCC=N1)NC(=O)c1cnc2c(F)cccc2c1 (stereo not drawn) [E24]

>  <Target system>
Glomerella lagenarium (Colletotrichum lagenarium)

>  <Meas value>
≥ 80%

$$$$
>  <Compound>
CC(C)CC(C)(CN1CCC(F)(F)CC1)NC(=O)c1cnc2c(F)cccc2c1 (stereo not drawn) [E5]

>  <Target system>
Glomerella lagenarium (Colletotrichum lagenarium)

>  <Meas value>
≥ 80%

$$$$
>  <Compound>
CC(Cc1cccc(F)n1)(CC(F)(F)F)NC(=O)c1cnc2ccccc2c1 (stereo not drawn) [E35]

>  <Target system>
Glomerella lagenarium (Colletotrichum lagenarium)

>  <Meas value>
≥ 80%

$$$$
>  <Compound>
CC(C)CC(C)(Cc1cccs1)NC(=O)c1cnc2c(F)cccc2c1 (stereo not drawn) [E12]

>  <Target system>
Glomerella lagenarium (Colletotrichum lagenarium)

>  <Meas value>
≥ 80%

$$$$
>  <Compound>
CON1CCC(CC(C)(CC(F)(F)F)NC(=O)c2cnc3c(F)cccc3c2)CC1 (stereo not drawn) [E28]

>  <Target system>
Glomerella lagenarium (Colletotrichum lagenarium)

>  <Meas value>
≥ 80%

$$$$
>  <Compound>
CC(Cc1ccc(F)nc1)(CC(F)(F)F)NC(=O)c1cnc2c(F)cccc2c1 (stereo not drawn) [E29]

>  <Target system>
Glomerella lagenarium (Colletotrichum lagenarium)

>  <Meas value>
≥ 80%

$$$$
>  <Compound>
CC(CC1CCCOC1)(CC(F)(F)F)NC(=O)c1cnc2ccccc2c1 (stereo not drawn) [E36]

>  <Target system>
Glomerella lagenarium (Colletotrichum lagenarium)

>  <Meas value>
≥ 80%

$$$$

Qu. Entry CC1=NN(CC(C)(CC(C)C)NC(=O)c2cnc3c(F)cccc3c2)CCC1 (stereo not drawn) [E23] has what inhibition of growth at 20 ppm?
Ans. ≥ 80%
